Tested on: NCI-H460
protocol_description: NCI tumour cell line growth inhibition, 48 h
The source made the active and inactive calls. No stated cut-off is given here; in the data, active = GI50 up to about 1.1 µM and inactive = higher.
This listing pairs molecules with measured GI50.

Worked examples follow.
# molecule, GI50
records = [
    ("COC(=O)c1ccccc1C1CN=NC12Cc1cccc(C)c1C2=O (centres undefined)", "88.1 µM (inactive)"),
    ("O=C1C(Cl)=C(N2CCN(CCOCCO)CC2)C(=O)c2ccccc21", "17.9 µM (inactive)"),
    ("CCOP(=O)(OCC)/C(=C/n1c(=S)[nH]c2ccccc21)C(=O)OC", "10 µM (inactive)"),
    ("CC(=O)NC(=N/N=C1/C(=O)Nc2ccc(C)cc21)NC(C)=O", "> 100 µM (inactive)"),
    ("COc1cc(C(=O)C/C(CCC(=O)Nc2ccccc2[N+](=O)[O-])=N\\NC(=O)CC#N)ccc1O", "> 100 µM (inactive)"),
    ("CS/C(=N\\c1ccc([N+](=O)[O-])cc1C#N)NC(=O)c1ccccc1", "> 100 µM (inactive)"),
    ("CC(C)C1CC(O)O[C@@H]([C@@H](C)[C@H]2CC(=O)[C@@H]3[C@@H]4[C@@H](O)[C@H](O)[C@H]5[C@@H](O)[C@H](O)CC[C@]5(C)[C@H]4CC[C@]23C)C1 (some centres undefined)", "> 100 µM (inactive)"),
    ("C=C(Cl)CN1c2ccccc2C=Cc2ccccc21", "3.61 µM (inactive)"),
]

Proceed to the following item.
Given item C=C1CC/C=C(\C)CCC[C@H](C)[C@@H](O)[C@@H]2OC(=O)C(=C)[C@@H]2C[C@H]1O , the value recorded as its GI50 is 8.99 µM (inactive)

----------
Tested on: T47D
protocol_description: NCI tumour cell line growth inhibition, 48 h
Where a name gives a salt, the structure may show the parent alone. Activity calls are given as the source filed them. No stated cut-off is given here; in the data, active = GI50 up to about 1.1 µM and inactive = higher.
measurement_label: GI50

Worked examples follow.
# molecule, GI50
records = [
    ("CN(C)CCOc1ccc(/C(=C(/CCCl)c2ccccc2)c2ccccc2)cc1 [TOREMIFENE CITRATE]", "11.6 µM (inactive)"),
    ("CN1CN(c2ccccc2)C2(CCN(CCc3csc4ccccc34)CC2)C1=O", "18.3 µM (inactive)"),
]

Given item COc1cc(O)c2c(=O)c(O)c(-c3ccc(O)c(O)c3)oc2c1 , the value recorded as its GI50 is 19.6 µM (inactive)

Given item O=C(NCCCNCCNC(=O)c1cc(-c2ccccc2)nc2ccccc12)c1cc(-c2ccccc2)nc2ccccc12 , the value recorded as its GI50 is 1.91 µM (inactive)

Given item CC(=O)OC1COC(n2nc(N)nc2C)C(OC(C)=O)C1OC(C)=O (stereo not given) , the value recorded as its GI50 is > 100 µM (inactive)

----------
Test system: NCI-H226
protocol_description: NCI tumour cell line growth inhibition, 48 h
Calls of active or inactive are those of the source. Cut-off read from the data, not from the text of the source: active = GI50 up to about 1.1 µM and inactive = higher.
This listing pairs compounds with measured GI50.

# compound, GI50
data = [
    ("N#CC1C(=O)N(c2ccccc2)NC12OC(=O)c1ccncc12 (stereo unspecified)", "> 20 µM (inactive)"),
    ("Cc1ccc(C(=O)c2[nH]c(NCc3ccccc3)c(C(=S)Nc3ccccc3)c2N)cc1", "11.5 µM (inactive)"),
    ("c1ccc2c(c1)[nH]c1c2nc2ncccn21", "> 100 µM (inactive)"),
    ("CC(OC1CC(=O)CC2C(=O)C=CC(=O)C12)c1ccccc1 (stereo unspecified)", "20 µM (inactive)"),
    ("CCCS(=O)(=O)/C(=C(\\c1ccc(Br)cc1)S(=O)(=O)CCC)c1ccc(Br)cc1", "> 10 µM (inactive)"),
    ("CCCCCCCCCc1c(Cl)nc(Cl)nc1Cl", "5.62 µM (inactive)"),
    ("COC(=O)c1ccccc1C1CN=NC12Cc1cccc(C)c1C2=O (stereo unspecified)", "49.7 µM (inactive)"),
    ("Cc1ncc(CSc2ccccc2N)c(CO)c1O", "> 100 µM (inactive)"),
]

Given item Cc1c(C)c(S(=O)(=O)N(CCCN)OCCCN)c(C)c2c1OC(C)(C)CC2 , the value recorded as its GI50 is 13.4 µM (inactive)

Given item CC(SC(=S)N1CCCC1)C(=O)Nc1nnc(-c2ccc(Cl)cc2)o1 (stereo unspecified) , the value recorded as its GI50 is 40.3 µM (inactive)

Given item CN(C)c1ccc(/C=N/c2nc3cc4sc(/N=C/c5ccc(N(C)C)cc5)nc4cc3s2)cc1 , the value recorded as its GI50 is 33.3 µM (inactive)

Given item CSC1(SC)CCCCCCCCCCC1 , the value recorded as its GI50 is > 100 µM (inactive)

Given item Cc1ccc(S(=O)(=O)N/N=c2\c(C)c(C3=NS(=O)(=O)c4cc(S(N)(=O)=O)c(Cl)cc4N3)oc3c(Cl)cc(Cl)cc23)cc1 , the value recorded as its GI50 is > 100 µM (inactive)

Given item COc1cc(/C=C2\N=C(C)N(n3c(-c4ccccc4)nc4ccccc4c3=O)C2=O)cc(OC)c1OC , the value recorded as its GI50 is > 100 µM (inactive)

Given item c1ccc(C2CC(c3ccc4ccccc4c3)=Nc3ccccc3S2)cc1 (stereo unspecified) , the value recorded as its GI50 is 19.4 µM (inactive)

Given item CCOC(=O)Cn1c(C(F)(F)F)nc2nc(Cl)c(Cl)nc21 , the value recorded as its GI50 is 50 µM (inactive)

From: ChEMBL document CHEMBL1201862
